experiment: UV/Vis absorption and fluorescence (photophysical properties) in DMSO; format: physicochemical; conditions: relative to quinine sulfate, average of two samples
metric: Φf (fluorescence quantum yield)

Below: 5 compounds and their reported Φf (fluorescence quantum yield).
| smiles-str | Φf (fluorescence quantum yield) |
| --- | --- |
| COCCN1C(=O)c2cccc3cc(NC(=O)OC(C)(C)C)cc(c23)C1=O | 0.06 |
| CCC(=O)Nc1cc2c3c(cccc3c1)C(=O)N(CCOC)C2=O | 0.04 |
| O=C(CCCCCN1C(=O)c2cccc3cc(NC(=O)c4ccccc4)cc(c23)C1=O)NO | 0.05 |
| COCCN1C(=O)c2cccc3cc(N4CCCC4=O)cc(c23)C1=O | 0.02 |
| CCC(=O)Nc1cc2c3c(cccc3c1)C(=O)N(CCCCCC(=O)NO)C2=O | 0.04 |

A = COCCN1C(=O)c2cccc3cc(NC(=O)c4ccccc4)cc(c23)C1=O
B = COc1ccc(C(=O)Nc2cc3c4c(cccc4c2)C(=O)N(CCCCCC(=O)NO)C3=O)cc1
Request: Input pair: A , B . Output: entry with lower Φf (fluorescence quantum yield). Field: selected label. Fill in the label of the entry you choose.
Result: A
(A: 0.02, B: 0.05)

----------
assay: UV/Vis absorption and fluorescence (photophysical properties) in DMSO; format: physicochemical; settings: excitation at 340 nm
metric: λem (nm)

| molecule | measurement-unit | λem |
| --- | --- | --- |
| COc1ccc(C(=O)Nc2cc3c4c(cccc4c2)C(=O)N(CCCCCC(=O)NO)C3=O)cc1 [KNH020] | nm | 437 |
| CCC(=O)Nc1cc2c3c(cccc3c1)C(=O)N(CCOC)C2=O [Compound 7] | nm | 439 |
| COCCN1C(=O)c2cccc3cc(NC(=O)OC(C)(C)C)cc(c23)C1=O [Compound 9] | nm | 442 |
| O=C(CCCCCN1C(=O)c2cccc3cc(NC(=O)c4ccccc4)cc(c23)C1=O)NO [KNH019] | nm | 437 |
| COCCN1C(=O)c2cccc3cc(N4CCCC4=O)cc(c23)C1=O [Compound 8] | nm | 441 |
| COCCN1C(=O)c2cccc3cc(NC(=O)c4ccccc4)cc(c23)C1=O [Compound 6] | nm | 435 |
| CCC(=O)Nc1cc2c3c(cccc3c1)C(=O)N(CCCCCC(=O)NO)C2=O [KNH021] | nm | 435 |

----------
test: UV/Vis absorption and fluorescence (photophysical properties) in DMSO; type: physicochemical
metric: λabs (secondary absorption maximum) (nm)

| smiles-str | metric | reported-value |
| --- | --- | --- |
| COCCN1C(=O)c2cccc3cc(N4CCCC4=O)cc(c23)C1=O | λabs (secondary absorption maximum) | 383 |
| CCC(=O)Nc1cc2c3c(cccc3c1)C(=O)N(CCCCCC(=O)NO)C2=O | λabs (secondary absorption maximum) | 383 |
| COCCN1C(=O)c2cccc3cc(NC(=O)c4ccccc4)cc(c23)C1=O | λabs (secondary absorption maximum) | 385 |
| COCCN1C(=O)c2cccc3cc(NC(=O)OC(C)(C)C)cc(c23)C1=O | λabs (secondary absorption maximum) | 367 |
| CCC(=O)Nc1cc2c3c(cccc3c1)C(=O)N(CCOC)C2=O | λabs (secondary absorption maximum) | 383 |
| O=C(CCCCCN1C(=O)c2cccc3cc(NC(=O)c4ccccc4)cc(c23)C1=O)NO | λabs (secondary absorption maximum) | 374 |

----------
Sequence of the target: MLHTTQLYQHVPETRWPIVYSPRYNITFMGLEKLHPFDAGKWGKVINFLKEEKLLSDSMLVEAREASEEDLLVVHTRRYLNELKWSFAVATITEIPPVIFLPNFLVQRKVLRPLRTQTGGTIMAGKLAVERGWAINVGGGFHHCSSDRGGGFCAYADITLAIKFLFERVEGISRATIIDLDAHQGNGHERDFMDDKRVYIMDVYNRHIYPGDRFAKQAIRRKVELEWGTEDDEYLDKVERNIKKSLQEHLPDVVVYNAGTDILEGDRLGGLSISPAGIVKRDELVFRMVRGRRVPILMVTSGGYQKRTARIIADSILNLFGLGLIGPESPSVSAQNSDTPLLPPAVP
metric: pIC50
Note on units: pIC50 is unitless, being -log10 of a concentration expressed in mol/L.

Request: Given the compound O=C(CCCCCN1C(=O)c2cccc3cc(NC(=O)c4ccccc4)cc(c23)C1=O)NO , write its reported pIC50.
Result: 6.54

----------
molecular target: HDAC1 (Homo sapiens); construct: purchased Reaction Biology corporation (contract assay); assay: HDAC1 enzyme inhibition assay (single point and 10-dose IC50, Reaction Biology); format: biochemical; details: average of two independent measurements
Sequence (Q13547 whole entry): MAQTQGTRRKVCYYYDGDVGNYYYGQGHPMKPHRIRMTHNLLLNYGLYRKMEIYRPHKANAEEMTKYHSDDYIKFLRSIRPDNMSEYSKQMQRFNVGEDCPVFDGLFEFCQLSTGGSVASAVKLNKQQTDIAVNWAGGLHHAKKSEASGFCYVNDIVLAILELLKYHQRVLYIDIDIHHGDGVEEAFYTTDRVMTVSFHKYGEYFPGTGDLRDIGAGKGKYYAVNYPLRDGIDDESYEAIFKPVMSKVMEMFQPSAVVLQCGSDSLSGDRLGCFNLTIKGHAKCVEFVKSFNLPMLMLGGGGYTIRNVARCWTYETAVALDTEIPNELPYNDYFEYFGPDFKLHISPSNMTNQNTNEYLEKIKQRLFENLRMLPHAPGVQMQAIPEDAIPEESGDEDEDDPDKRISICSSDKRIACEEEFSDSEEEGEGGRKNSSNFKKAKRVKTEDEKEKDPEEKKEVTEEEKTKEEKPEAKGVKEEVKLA
pIC50: −log10 of the molar value.
metric: pIC50

| smiles-str | study-system | pIC50 |
| --- | --- | --- |
| COc1ccc(C(=O)Nc2cc3c4c(cccc4c2)C(=O)N(CCCCCC(=O)NO)C3=O)cc1 | HDAC1 (Homo sapiens) | 7.06 |

a = O=C(CCCCCN1C(=O)c2cccc3cc(NC(=O)c4ccccc4)cc(c23)C1=O)NO
b = CCC(=O)Nc1cc2c3c(cccc3c1)C(=O)N(CCCCCC(=O)NO)C2=O
Request: Thinking about recorded pIC50 values, which is higher, a or b ? Field: selected label. Fill in the label of the entry you choose.
Result: b

----------
target: HDAC3 (Homo sapiens, UniProt O15379); construct: purchased Reaction Biology corporation (contract assay); assay: HDAC3 enzyme inhibition assay (single point and 10-dose IC50, Reaction Biology); type: biochemical; settings: average of two independent measurements
Sequence (O15379 whole entry): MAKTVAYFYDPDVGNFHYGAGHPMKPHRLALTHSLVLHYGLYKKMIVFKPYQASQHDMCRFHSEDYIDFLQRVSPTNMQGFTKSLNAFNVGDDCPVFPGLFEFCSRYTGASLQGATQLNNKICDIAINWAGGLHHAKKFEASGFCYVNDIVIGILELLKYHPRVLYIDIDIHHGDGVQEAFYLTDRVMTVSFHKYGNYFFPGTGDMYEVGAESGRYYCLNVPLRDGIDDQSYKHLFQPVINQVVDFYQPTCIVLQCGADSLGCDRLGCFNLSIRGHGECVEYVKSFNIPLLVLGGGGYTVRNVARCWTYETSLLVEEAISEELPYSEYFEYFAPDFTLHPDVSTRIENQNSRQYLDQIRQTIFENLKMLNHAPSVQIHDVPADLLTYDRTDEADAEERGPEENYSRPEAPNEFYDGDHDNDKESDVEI
Sequence (Q9Y618 395-489 partner limits assumed): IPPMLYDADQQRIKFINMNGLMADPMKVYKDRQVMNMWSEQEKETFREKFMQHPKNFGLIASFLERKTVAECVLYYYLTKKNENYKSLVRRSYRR
pIC50: −log10 of the molar value.
metric: pIC50

| molecule | reported-value |
| --- | --- |
| COc1ccc(C(=O)Nc2cc3c4c(cccc4c2)C(=O)N(CCCCCC(=O)NO)C3=O)cc1 [KNH020] | 7.57 |

1 = CCC(=O)Nc1cc2c3c(cccc3c1)C(=O)N(CCCCCC(=O)NO)C2=O [KNH021]
2 = O=C(CCCCCN1C(=O)c2cccc3cc(NC(=O)c4ccccc4)cc(c23)C1=O)NO [KNH019]
Request: Input pair: 1 , 2 . Output: entry with lower pIC50. Field: selected label. Fill in the label of the entry you choose.
Result: 2
(2: 7.19, 1: 7.49)

----------
assay: UV/Vis absorption and fluorescence (photophysical properties) in DMSO; type: physicochemical
metric: λabs (absorption maximum) (nm)

| smiles-str | λabs (absorption maximum) / nm |
| --- | --- |
| O=C(CCCCCN1C(=O)c2cccc3cc(NC(=O)c4ccccc4)cc(c23)C1=O)NO | 343 |
| CCC(=O)Nc1cc2c3c(cccc3c1)C(=O)N(CCCCCC(=O)NO)C2=O | 341 |
| COc1ccc(C(=O)Nc2cc3c4c(cccc4c2)C(=O)N(CCCCCC(=O)NO)C3=O)cc1 | 343 |
| COCCN1C(=O)c2cccc3cc(NC(=O)OC(C)(C)C)cc(c23)C1=O | 345 |
| CCC(=O)Nc1cc2c3c(cccc3c1)C(=O)N(CCOC)C2=O | 341 |
| COCCN1C(=O)c2cccc3cc(NC(=O)c4ccccc4)cc(c23)C1=O | 344 |
| COCCN1C(=O)c2cccc3cc(N4CCCC4=O)cc(c23)C1=O | 343 |

----------
biological target: HDAC6 (Homo sapiens, UniProt Q9UBN7); construct: purchased Reaction Biology corporation (contract assay); assay: HDAC6 enzyme inhibition assay (single point and 10-dose IC50, Reaction Biology); format: biochemical; settings: average of two independent measurements
Sequence (Q9UBN7 whole entry): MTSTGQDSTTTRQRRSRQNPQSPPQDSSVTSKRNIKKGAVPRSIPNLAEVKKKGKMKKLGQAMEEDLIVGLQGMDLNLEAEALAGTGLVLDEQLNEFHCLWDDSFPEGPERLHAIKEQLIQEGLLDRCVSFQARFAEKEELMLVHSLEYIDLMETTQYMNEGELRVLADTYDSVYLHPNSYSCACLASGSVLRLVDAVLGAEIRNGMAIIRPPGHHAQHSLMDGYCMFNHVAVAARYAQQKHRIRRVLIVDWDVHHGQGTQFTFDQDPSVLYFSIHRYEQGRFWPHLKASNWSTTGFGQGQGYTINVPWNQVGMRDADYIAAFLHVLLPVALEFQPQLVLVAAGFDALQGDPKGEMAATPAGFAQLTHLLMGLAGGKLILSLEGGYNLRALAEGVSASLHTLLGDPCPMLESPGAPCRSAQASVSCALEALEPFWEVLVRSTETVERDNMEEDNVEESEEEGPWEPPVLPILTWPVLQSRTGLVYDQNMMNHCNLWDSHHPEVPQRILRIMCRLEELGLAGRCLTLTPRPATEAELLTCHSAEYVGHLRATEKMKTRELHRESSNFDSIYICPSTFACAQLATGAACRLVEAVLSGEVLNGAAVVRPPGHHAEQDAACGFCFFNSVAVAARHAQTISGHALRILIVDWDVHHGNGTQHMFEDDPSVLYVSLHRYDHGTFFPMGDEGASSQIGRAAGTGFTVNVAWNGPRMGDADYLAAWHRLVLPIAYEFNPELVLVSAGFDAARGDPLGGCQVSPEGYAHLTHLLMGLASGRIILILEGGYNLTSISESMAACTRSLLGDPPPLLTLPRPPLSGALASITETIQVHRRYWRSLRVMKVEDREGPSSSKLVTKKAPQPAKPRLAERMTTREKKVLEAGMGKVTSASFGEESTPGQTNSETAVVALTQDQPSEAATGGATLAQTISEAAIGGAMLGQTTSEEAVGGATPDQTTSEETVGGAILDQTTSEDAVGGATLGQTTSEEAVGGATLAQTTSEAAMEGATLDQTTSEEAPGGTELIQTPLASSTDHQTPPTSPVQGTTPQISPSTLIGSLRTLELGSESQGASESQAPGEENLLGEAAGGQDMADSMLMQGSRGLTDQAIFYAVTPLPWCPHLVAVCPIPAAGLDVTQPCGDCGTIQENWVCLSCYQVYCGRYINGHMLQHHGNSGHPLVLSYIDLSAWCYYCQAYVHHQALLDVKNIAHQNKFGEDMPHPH
metric: IC50 (pM)

| compound | metric | measurement-unit | reported-value |
| --- | --- | --- | --- |
| CCC(=O)Nc1cc2c3c(cccc3c1)C(=O)N(CCCCCC(=O)NO)C2=O [KNH021] | IC50 | pM | 970 |

1 = COc1ccc(C(=O)Nc2cc3c4c(cccc4c2)C(=O)N(CCCCCC(=O)NO)C3=O)cc1 [KNH020]
2 = O=C(CCCCCN1C(=O)c2cccc3cc(NC(=O)c4ccccc4)cc(c23)C1=O)NO [KNH019]
Request: Thinking about recorded IC50 values, which is higher, 1 or 2 ? Field: selected label. Fill in the label of the entry you choose.
Result: 2
(2: 1000 pM, 1: 580 pM)
